Molecular target: BRD4^BD1 (Homo sapiens)
Construct: to the isolated BD1 and BD2 domains of BRD2, BRD3 and BRD4
Test: competitive fluorescence polarization assay, BRD4 BD1 -/+ presenter protein
Assay type: binding
Conditions: presence of 15 µM FKBP12; read-out: Binding to BRD4^BD1 + FKBP12 Kd (converted)
measuredParameter: Kd (nM)
Answer format: numeric, nM implied, no suffix.

molecule | observedMeasurement
Cc1sc2c(c1C)C(c1ccc(Cl)cc1)=NC(CC(=O)NCCOCCOCCn1cc(C3CN(Cc4ccccn4)C(=O)C4CCCC3N4S(=O)(=O)c3cc(Cl)cc(Cl)c3)nn1)c1nnc(C)n1-2 (centres unmarked) | 250

// Cc1sc2c(c1C)C(c1ccc(Cl)cc1)=NC(CC(=O)N1CCC(N3CCC(n4cc(COCC5CN(Cc6ccccn6)C(=O)C6CCCC5N6S(=O)(=O)c5cc(Cl)cc(Cl)c5)nn4)CC3)CC1)c1nnc(C)n1-2 (centres unmarked) : Kd value = 140

// Cc1sc2c(c1C)C(c1ccc(Cl)cc1)=NC(CC(=O)N1CCN(CCCn3cc(COCC4CN(Cc5ccccn5)C(=O)C5CCCC4N5S(=O)(=O)c4cc(Cl)cc(Cl)c4)nn3)CC1)c1nnc(C)n1-2 (centres unmarked) : Kd value = 300

// Cc1sc2c(c1C)C(c1ccc(Cl)cc1)=NC(CC(=O)NCCOCCn1cc(COC(C)C3CN(Cc4ccccn4)C(=O)C4CCCC3N4S(=O)(=O)c3cc(Cl)cc(Cl)c3)nn1)c1nnc(C)n1-2 (centres unmarked) [a1e] : Kd value = 48

// Cc1sc2c(c1C)C(c1ccc(Cl)cc1)=NC(CC(=O)N1CCC(N3CCC(Cn4cc(C5CN(Cc6ccccn6)C(=O)C6CCCC5N6S(=O)(=O)c5cc(Cl)cc(Cl)c5)nn4)CC3)CC1)c1nnc(C)n1-2 (centres unmarked) [a10c] : Kd value = 900
